pIC50: −log10 of the molar value.
Listing of pIC50 toward UniProtKB Q9YQ12, each taken from a published source.

These recorded examples may help you get a feel for the data.
CC(C)c1nc(CN(C)C(=O)N[C@@H](CO)C(=O)N[C@@H](CC[C@@H](Cc2ccccc2)NC(=O)OCc2cncs2)Cc2ccccc2)cs1 : < 4.52
CC1(C)CC[C@]2(C(=O)NCCCCCCCCCCC(=O)O)CC[C@]3(C)C(=CC[C@@H]4[C@@]5(C)CC[C@H](OC(=O)CCCC(=O)O)C(C)(C)[C@@H]5CC[C@]43C)[C@@H]2C1 : < 4.30

Name the value of pIC50 reported for "COC(=O)[C@@]1(O)C[C@]2(C)[C@H]3C[C@@H](O)[C@@H]4[C@@H]([C@@]5(C)CCCC(C)(C)O5)CC[C@@]4(C)[C@]3(C)CC(=O)[C@H]2C1(C)C" when tested on UniProtKB Q9YQ12. < 3.71

---

Listing of IC50 toward UniProt Q9YQ12, each taken from a published source.

Name the value of IC50 reported for "COC(=O)N[C@H](C(=O)N[C@@H](Cc1ccccc1)[C@H](CN(Cc1ccc(-c2ccccn2)cc1)NC(=O)[C@@H](NC(=O)OC)C(C)(C)C)OC(=O)[C@H](N)Cc1ccccc1)C(C)(C)C" when tested on UniProt Q9YQ12. 0.004 to 1.14 µM

Name the value of IC50 reported for "CC(C)c1nc(CN(C)C(=O)N[C@@H](CCN2CCOCC2)C(=O)N[C@H](CCN(Cc2ccccc2)C(=O)OCc2cncs2)Cc2ccccc2)cs1" when tested on UniProt Q9YQ12. > 30 µM

Name the value of IC50 reported for "CC(=O)NCC[C@H](NC(=O)N(C)Cc1csc(C(C)C)n1)C(=O)N[C@@H](CC[C@@H](Cc1ccccc1)NC(=O)OCc1cncs1)Cc1ccccc1" when tested on UniProt Q9YQ12. > 30 µM

---

Listing of IC50 toward Protease (Human immunodeficiency virus 1, UniProt Q9YQ12), each taken from a published source.

Cc1ccc(C(=O)N[C@@H](Cc2ccccc2)[C@@H](O)[C@H](O)[C@H](Cc2ccccc2)NC(=O)C2CCOC2)cn1 (stereo not given in full) : > 25 µM
CC1(C)CC[C@]2(C(=O)NCCCCCC(=O)NCC(=O)O)CC[C@]3(C)C(=CC[C@@H]4[C@@]5(C)CC[C@H](OC(=O)CCC(=O)O)C(C)(C)[C@@H]5CC[C@]43C)[C@@H]2C1 : > 50 µM
CC(C)c1nc(CN(C)C(=O)N[C@H](C(=O)N[C@@H](C)CC[C@H](C)NC(=O)OCc2cncs2)C(C)C)cs1 : > 30 µM
COC(=O)N[C@H](C(=O)N[C@@H](Cc1ccccc1)[C@H](CN(Cc1ccc(-c2ccccn2)cc1)NC(=O)[C@@H](NC(=O)OC)C(C)(C)C)OC(=O)[C@@H](NC(=O)[C@H](N)C(C)C)C(C)C)C(C)(C)C : 0.004 to 1.14 µM

Please give measured IC50 of the following entry: "CCCCCC(=O)O[C@H]1CC[C@]2(C)[C@H]3CC=C4[C@@H]5CC(C)(C)CC[C@]5(C(=O)NCCCC(=O)N[C@H](C(=O)O)C(C)C)CC[C@@]4(C)[C@]3(C)CC[C@H]2C1(C)C" > 50 µM

Please give measured IC50 of the following entry: "CCCCCCCCCCCC(=O)O[C@H]1CC[C@]2(C)[C@H]3CC=C4[C@@H]5CC(C)(C)CC[C@]5(C(=O)NCCCC(=O)N[C@@H](C)C(=O)O)CC[C@@]4(C)[C@]3(C)CC[C@H]2C1(C)C" > 50 µM
